Where do these numbers come from? They come from paper PMC6445466.

Biological target: T1, human C1r, full-length enzyme (human, UniProt P00736 18-705)
T1 construct: complement C1r, human, 92 kDa, CUB1-EGF-CUB2-CCP1-CCP2-SP; bought as purified full-length enzyme; source: bought: Complement Technology (Tyler, TX), purified
T1 sequence: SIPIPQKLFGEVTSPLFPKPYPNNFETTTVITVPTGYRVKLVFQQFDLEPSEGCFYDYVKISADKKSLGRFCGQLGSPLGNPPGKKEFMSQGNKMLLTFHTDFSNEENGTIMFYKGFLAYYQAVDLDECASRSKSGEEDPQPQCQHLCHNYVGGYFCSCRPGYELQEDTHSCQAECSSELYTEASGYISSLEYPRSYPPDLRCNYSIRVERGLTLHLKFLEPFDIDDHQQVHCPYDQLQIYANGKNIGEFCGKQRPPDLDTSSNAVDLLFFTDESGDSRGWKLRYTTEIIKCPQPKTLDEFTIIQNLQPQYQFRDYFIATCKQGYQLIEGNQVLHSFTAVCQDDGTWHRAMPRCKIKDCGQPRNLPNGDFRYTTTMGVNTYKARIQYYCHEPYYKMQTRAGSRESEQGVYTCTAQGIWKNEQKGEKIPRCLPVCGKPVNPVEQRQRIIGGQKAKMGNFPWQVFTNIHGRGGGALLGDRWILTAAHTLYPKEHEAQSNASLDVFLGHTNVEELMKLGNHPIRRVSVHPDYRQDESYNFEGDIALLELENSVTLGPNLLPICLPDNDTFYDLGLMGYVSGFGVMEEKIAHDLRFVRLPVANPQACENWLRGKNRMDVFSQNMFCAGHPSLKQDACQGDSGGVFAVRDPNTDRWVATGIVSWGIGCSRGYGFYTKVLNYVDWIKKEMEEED
Assay: SPR; Biacore T200, 25°C; borrelial protein immobilised by amine coupling; C1r as analyte, single-cycle kinetics, five-fold dilution series 1.6 to 1000 nM; HBS-T with 5 mM CaCl2; 1:1 kinetic fit; triplicate
Settings: both partners purified
pKd: −log10 of the molar value.

Binder | pKd
BGD19-C (residues 206-354, B. garinii strain IP90) (domain or fragment) SNRYQSYLEGVKYNVDSAIKTITKIYDTYTLFLTKLTQMYSTRLDNLAKAKAKEEAAKFTKEDLEKNFKTLLNYIQVSVKTATNFVYINDTHAKRKLENIETKIKTLIAKIKEKSNLYQAYKAIVRPILLMRDSLKEVQGAIDKNGIWY | 8.28
BXK32-C (BBK32-C E308K-Q319K-E324Q) (domain or fragment, Borrelia burgdorferi strain B31, UniProt O50835 206-354, looked up, BBK32, Borrelia burgdorferi strain B31, residues 206-354 (the limits of BBK32-C) with three residues changed to those of B. garinii BGD19; also called BBK32-E308K-Q319K-E324Q; chimeric BBK32-C; source: recombinant, E. coli codon-optimized synthetic DNA in pT7HMT, purified to homogeneity) SNRYQSYLEGVKYNVDSAIQTITKIYNTYTLFSTKLTQMYSTRLDNFAKAKAKEEAAKFTKEDLEKNFKTLLNYIQVSVKTAANFVYINDTHAKRKLENIEAKIKTLIAKIKEKSNLYQAYKAIVTSILLMRDSLKEVQGIIDKNGVWY | 8.15
BBK32(206-348) (residues 206-348, B. burgdorferi strain B31) (domain or fragment, BBK32, Borrelia burgdorferi strain B31, residues 206-348 (lacks six C-terminal residues relative to BBK32-C); also called BBK32-C(206-348); source: recombinant, sub-cloned into pT7HMT, purified to homogeneity) SNRYQSYLEGVKYNVDSAIQTITKIYNTYTLFSTKLTQMYSTRLDNFAKAKAKEEAAKFTKEDLEKNFKTLLNYIQVSVKTAANFVYINDTHAKRKLENIEAEIKTLIAKIKEQSNLYEAYKAIVTSILLMRDSLKEVQGIID | 9.12
BBK32-C (residues 206-354, B. burgdorferi strain B31) (domain or fragment, BBK32, Borrelia burgdorferi sensu stricto strain B31, residues 206-354; also called BBK32(206-354); source: recombinant, sub-cloned into pT7HMT, purified to homogeneity) SNRYQSYLEGVKYNVDSAIQTITKIYNTYTLFSTKLTQMYSTRLDNFAKAKAKEEAAKFTKEDLEKNFKTLLNYIQVSVKTAANFVYINDTHAKRKLENIEAEIKTLIAKIKEQSNLYEAYKAIVTSILLMRDSLKEVQGIIDKNGVWY | 8.29
